measured metric: binding signal (PBM E-score (-0.5 to 0.5))
Just the number, please.

In: API: value(readout= binding signal (PBM E-score (-0.5 to 0.5)), system= lin-48 (F34D10.5) (Caenorhabditis elegans), query= TAACGGTA (double strand) [8-mer TAACGGTA] )
Out: 0.494

In: Any idea what binding signal (PBM E-score (-0.5 to 0.5)) came out for CCGTTACA (double strand) [8-mer CCGTTACA] on lin-48 (F34D10.5) (Caenorhabditis elegans)?
Out: 0.486

In: Entry ACCGTTAT (double strand) [8-mer ACCGTTAT] , system lin-48 (F34D10.5) (Caenorhabditis elegans): what binding signal (PBM E-score (-0.5 to 0.5)) was measured?
Out: 0.493

In: Provide the documented binding signal (PBM E-score (-0.5 to 0.5)) with lin-48 (F34D10.5) (Caenorhabditis elegans) as the system for ACCGTTAC (double strand) [8-mer ACCGTTAC]
Out: 0.497

In: Item GTCCGTTA (double strand) [8-mer GTCCGTTA] with lin-48 (F34D10.5) (Caenorhabditis elegans) - binding signal (PBM E-score (-0.5 to 0.5))?
Out: 0.487

In: Please tell me: binding signal (PBM E-score (-0.5 to 0.5)) of AACCGTTA (double strand) [8-mer AACCGTTA] , system lin-48 (F34D10.5) (Caenorhabditis elegans)?
Out: 0.49

---

For each entry below, report its binding signal (PBM E-score (-0.5 to 0.5)) value.
Target: B0310.2 (B0310.2) (Caenorhabditis elegans) (UniProt Q10938)
Sequence: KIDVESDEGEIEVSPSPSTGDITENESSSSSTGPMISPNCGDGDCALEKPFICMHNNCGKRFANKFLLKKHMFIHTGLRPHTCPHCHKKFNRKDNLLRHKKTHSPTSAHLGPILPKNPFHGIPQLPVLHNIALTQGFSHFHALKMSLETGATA
Response field accepts a number only; no unit should be typed.

In: What does the record list as binding signal (PBM E-score (-0.5 to 0.5)) for GAACCTCA (double strand) [8-mer GAACCTCA] ?
Out: 0.48

In: Consider the sequence shown here: ATCCCTCA (double strand) [8-mer ATCCCTCA] What is its recorded binding signal (PBM E-score (-0.5 to 0.5))?
Out: 0.482

In: So what's the measured binding signal (PBM E-score (-0.5 to 0.5)) for this one? GTGAGGTA (double strand) [8-mer GTGAGGTA]
Out: 0.485

In: Give the measured binding signal (PBM E-score (-0.5 to 0.5)) of GTGAGGGA (double strand) [8-mer GTGAGGGA] .
Out: 0.478

---

Biological target: T22H9.4 (T22H9.4) (Caenorhabditis elegans) (UniProt Q9TXN8)
Sequence: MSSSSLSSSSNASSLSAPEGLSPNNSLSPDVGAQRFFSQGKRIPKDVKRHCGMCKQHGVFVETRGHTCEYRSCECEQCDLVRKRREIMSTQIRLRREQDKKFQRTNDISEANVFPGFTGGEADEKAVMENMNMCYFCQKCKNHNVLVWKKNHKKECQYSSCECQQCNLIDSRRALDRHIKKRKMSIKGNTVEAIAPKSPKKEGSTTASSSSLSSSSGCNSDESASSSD
measured metric: binding signal (PBM E-score (-0.5 to 0.5))
Number only, please.

In: Could you share which binding signal (PBM E-score (-0.5 to 0.5)) value was measured for TGTTGCAA (double strand) [8-mer TGTTGCAA] ?
Out: 0.499

In: Entry under review: CGTTGCAA (double strand) [8-mer CGTTGCAA] . Reported binding signal (PBM E-score (-0.5 to 0.5))?
Out: 0.488

In: Which binding signal (PBM E-score (-0.5 to 0.5)) value belongs to TGTTGAAA (double strand) [8-mer TGTTGAAA] ?
Out: 0.499

In: # binding signal (PBM E-score (-0.5 to 0.5)) lookup, item ATTTTAAC (double strand) [8-mer ATTTTAAC]
Out: 0.491

In: Form field: reported binding signal (PBM E-score (-0.5 to 0.5)) of TGTAGAAA (double strand) [8-mer TGTAGAAA]
Out: 0.489

In: Form field: reported binding signal (PBM E-score (-0.5 to 0.5)) of TGTTACAA (double strand) [8-mer TGTTACAA]
Out: 0.488

In: # query: binding signal (PBM E-score (-0.5 to 0.5)) of entry GTTGCAAA (double strand) [8-mer GTTGCAAA]
Out: 0.493

In: Looking for the measured binding signal (PBM E-score (-0.5 to 0.5)) of GTTGAAAA (double strand) [8-mer GTTGAAAA] , can you help?
Out: 0.495

In: Sample ATTCAACA (double strand) [8-mer ATTCAACA] — what was its binding signal (PBM E-score (-0.5 to 0.5))?
Out: 0.49

---

Target: nhr-70 (Y51A2D.17) (Caenorhabditis elegans)
Sequence: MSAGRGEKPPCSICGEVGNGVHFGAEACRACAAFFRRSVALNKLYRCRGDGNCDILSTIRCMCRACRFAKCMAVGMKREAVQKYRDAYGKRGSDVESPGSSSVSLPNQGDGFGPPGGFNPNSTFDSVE
measured metric: binding signal (PBM E-score (-0.5 to 0.5))
Give the figure by itself; no unit, no explanation.

In: Query the reported binding signal (PBM E-score (-0.5 to 0.5)) for nhr-70 (Y51A2D.17) (Caenorhabditis elegans); item: TGACTACA (double strand) [8-mer TGACTACA]
Out: 0.491

In: Lab note: need binding signal (PBM E-score (-0.5 to 0.5)) for AGACTACA (double strand) [8-mer AGACTACA] on nhr-70 (Y51A2D.17) (Caenorhabditis elegans), anyone have it?
Out: 0.486

In: Find the measured binding signal (PBM E-score (-0.5 to 0.5)): item AACTACAA (double strand) [8-mer AACTACAA] , target or system nhr-70 (Y51A2D.17) (Caenorhabditis elegans).
Out: 0.487

In: Request - read-out binding signal (PBM E-score (-0.5 to 0.5)) | tested on nhr-70 (Y51A2D.17) (Caenorhabditis elegans) | sequence CGACTACA (double strand) [8-mer CGACTACA]
Out: 0.487

In: # returns recorded binding signal (PBM E-score (-0.5 to 0.5)) (system: nhr-70 (Y51A2D.17) (Caenorhabditis elegans)) for GCTACAAA (double strand) [8-mer GCTACAAA]
Out: 0.489

In: Please tell me: binding signal (PBM E-score (-0.5 to 0.5)) of AGGCTACA (double strand) [8-mer AGGCTACA] , system nhr-70 (Y51A2D.17) (Caenorhabditis elegans)?
Out: 0.488

In: Write down the reported binding signal (PBM E-score (-0.5 to 0.5)) of TGGCTACA (double strand) [8-mer TGGCTACA] , test system: nhr-70 (Y51A2D.17) (Caenorhabditis elegans).
Out: 0.48

In: Provide the documented binding signal (PBM E-score (-0.5 to 0.5)) with nhr-70 (Y51A2D.17) (Caenorhabditis elegans) as the system for GACTACAC (double strand) [8-mer GACTACAC]
Out: 0.49

In: Kindly state the measured binding signal (PBM E-score (-0.5 to 0.5)) obtained for CGGCTACA (double strand) [8-mer CGGCTACA] with nhr-70 (Y51A2D.17) (Caenorhabditis elegans).
Out: 0.488

In: Param readout= binding signal (PBM E-score (-0.5 to 0.5)); system= nhr-70 (Y51A2D.17) (Caenorhabditis elegans); entry= ACTACAAT (double strand) [8-mer ACTACAAT] ; returns value.
Out: 0.49

In: Request - read-out binding signal (PBM E-score (-0.5 to 0.5)) | tested on nhr-70 (Y51A2D.17) (Caenorhabditis elegans) | sequence GGCTACAA (double strand) [8-mer GGCTACAA]
Out: 0.492

---

Tested on: slr-2 (Y59A8B.13) (Caenorhabditis elegans)
Sequence: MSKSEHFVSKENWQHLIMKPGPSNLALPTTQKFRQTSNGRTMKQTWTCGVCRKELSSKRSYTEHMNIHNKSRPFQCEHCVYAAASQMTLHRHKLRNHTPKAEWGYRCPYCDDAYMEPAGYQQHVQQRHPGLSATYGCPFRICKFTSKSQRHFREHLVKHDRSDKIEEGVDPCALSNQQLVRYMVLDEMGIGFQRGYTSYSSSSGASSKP
Exercise: for every item that follows, state its recorded binding signal (PBM E-score (-0.5 to 0.5)).
Give only the figure.

In: Can you look up the measured binding signal (PBM E-score (-0.5 to 0.5)) of AGACTGCA (double strand) [8-mer AGACTGCA] for me?
Out: 0.469

In: Give its binding signal (PBM E-score (-0.5 to 0.5)) value. Item: GGACTGCA (double strand) [8-mer GGACTGCA]
Out: 0.476

In: Would you kindly share the measured binding signal (PBM E-score (-0.5 to 0.5)) for GACTGCAA (double strand) [8-mer GACTGCAA] ?
Out: 0.491

In: Sample ACTACAAA (double strand) [8-mer ACTACAAA] — what was its binding signal (PBM E-score (-0.5 to 0.5))?
Out: 0.452

In: // binding signal (PBM E-score (-0.5 to 0.5)) lookup, key: GACTACAA (double strand) [8-mer GACTACAA]
Out: 0.468

In: Value lookup for binding signal (PBM E-score (-0.5 to 0.5)); key = AACTACAA (double strand) [8-mer AACTACAA]
Out: 0.492

In: I'd like to know its binding signal (PBM E-score (-0.5 to 0.5)). The sequence in question is GAACTACA (double strand) [8-mer GAACTACA]
Out: 0.459

In: Could you share which binding signal (PBM E-score (-0.5 to 0.5)) value was measured for AAACTGCA (double strand) [8-mer AAACTGCA] ?
Out: 0.475

In: Which binding signal (PBM E-score (-0.5 to 0.5)) reading was recorded for the sequence ACTGCAAA (double strand) [8-mer ACTGCAAA] ?
Out: 0.487

In: So what does the record say about binding signal (PBM E-score (-0.5 to 0.5)) for AACTGCAA (double strand) [8-mer AACTGCAA] ?
Out: 0.495

In: Entry GAACTGCA (double strand) [8-mer GAACTGCA] : reported binding signal (PBM E-score (-0.5 to 0.5)) = ?
Out: 0.494
